B1: minF1; the commonest letter at each place (parent)
chain: GAGACCGCAACTGAAAAGTTGTTATCAGAAATGGATGGGTTGAATTTCTGCACGTAGAAGCAAAAGGC

Variants of: B1
Experiment: fraction ligated after 30 min (ligated reads / total reads); higher = more ligase activity
Details: with F1*subA RNA substrate (template-directed ligation), 42 °C
Category scheme (fraction ligated): group 1 (below 0.006), group 2 (0.006 to below 0.02), group 3 (0.02 or more)

Solved entries (count: 3):
* GAGACCGCAACTGAAAAGTTGTTATCAGAAACGCATGGGTTGAATTTCTGCACGTAGAAGCAAAAGGC [T32C G34C] | group 1
* GAGACCGCAACTGAAAAGTTGTTATCAGTAATGGATAGGTTGAATTTCTGCACGTAGAAGCAAAAGGC [A29T G37A] | group 2
* GAGACCGCAACTGAAAAGTTGTTTTTAGAAATGGATGGGTTGAATTTCTGCACGTAGAAGCAAAAGGC [A24T C26T] | group 2

Data request: Class for GAGACCGCAACTGAAAAGTTGTTATCAGAAATGGACGGGTTGAGTTTCTGCACGTAGAAGCAAAAGGC [T36C A44G] ?
Data returned: group 2

Data request: Class for GAGACCGCAACTGAAAAGTTGTTAGAAGAAATGGATGGGTTGAATTTCTGCACGTAGAAGCAAAAGGC [T25G C26A] ?
Data returned: group 2

Data request: Class for GAGACCGCAACTGAAAAGTTGTTATCAAAACTGGATGGGTTGAATTTCTGCACGTAGAAGCAAAAGGC [G28A A31C] ?
Data returned: group 3

Data request: Class for GAGACCGCAACTGAAAAGTTGTTGTGAGAAATGGATGGGTTGAATTTCTGCACGTAGAAGCAAAAGGC [A24G C26G] ?
Data returned: group 1

Data request: Class for GAGACCGCAACTGAAAAGTTGTTATCAGAAATGAATGGGTTGAGTTTCTGCACGTAGAAGCAAAAGGC [G34A A44G] ?
Data returned: group 2
